Test system: TK-10 renal
assay text: NCI-60 one-dose screen, 48 h (100 = growth as untreated, 0 = no growth, -100 = all killed)
run conditions: 10 µM unless noted
The panel holds about 83,000 compounds, 20% with a hit somewhere; the sample as a whole holds those more often.

smiles entry	system	growth / %
CCN(CC)S(=O)(=O)c1ccc(-c2nc(C(Cl)Cl)nc3cc(C)nn23)cc1	TK-10 renal	79.4
CC(=O)Nc1ccccc1-c1nc2ccccc2s1	TK-10 renal	97.7
Brc1cc(-c2cc(-c3ccc4c(c3)OCCO4)[nH]n2)cs1	TK-10 renal	138
CS(=O)(=O)c1nccc(-c2c(-c3cccc(OCc4ccc(Cl)c(C(F)(F)F)c4)c3)nc3sccn23)n1	TK-10 renal	112
Cc1nc(/N=C(N)/N=C(\N)c2cccc(Br)c2)sc1C	TK-10 renal	83.3
